molecular target: ErbB3 on cancer cells (UniProt P21860 20-1342, limits assumed); assay: cell-based or functional assay
Kindly supply the reported Inhibition of Akt phosphorylation, IC50 (HRG-stimulated MCF7 cells) values for the records listed here.
Answers are plain numbers, in nM.

BINDER	NUMERIC RESULT
472S2 (antibody, V domains shown, IgG1 (Selexis 085 vector, CHO)) VH: EVQLLESGGGLVQPGGSLRLSCAASGFTFSWYDLAWVRQAPGKGLEWVSGISYDGGNTYYADSVKGRFTISRDNSKNTLYLQMNSLRAEDTAVYYCARDPSWCLQDLCYYADGMDVWGQGTLVTVSS VL: QSVLTQPPSASGTPGQRVTISCSGSSSNIGSNSVSWYQQLPGTAPKLLIYADSNRPSGVPDRFSGSKSGTSASLAISGLRSEDEADYYCGSWDYSLSGYVFGGGTKLTVLG	0.195
442S1 (antibody, V domains shown, IgG1 (Selexis 085 vector, CHO)) VH: EVQLLESGGGLVQPGGSLRLSCAASGFTFSDYDMSWVRQAPGKGLEWVSTIDLDSGSIYYADSVQGRFTISRDNSKNTLYLQMNSLRAEDTAVYYCAKDLHMGPEGPFDYWGQGTLVTVSS VL: QSVLTQPPSASGTPGQRVTISCSGSSSNIGSNSVSWYQQLPGTAPKLLIYSDNHRPSGVPDRFSGSKSGTSASLAISGLRSEDEADYYCQGWDTSLSGHVFGGGTKLTVLG	0.239

Turning now to a further binder:
Q) # lookup: Inhibition of Akt phosphorylation, IC50 (HRG-stimulated MCF7 cells) of 442M6 (antibody, V domains shown, IgG1 (Selexis 085 vector, CHO)) VH: EVQLLESGGGLVQPGGSLRLSCAASGFTFSDYDMSWVRQAPGKGLEWVSSIEPDSGSTDYADSVQGRFTISRDNSKNTLYLQMNSLRAEDTAVYYCAKDRHMWPEGPFDYWGQGTLVTVSS VL: QSVLTQPPSASGTPGQRVTISCSGSSSNIGSNSGSWYQQLPGTAPKLLIYADNWRPSGVPDRFSGSKSGTSASLAISGLRSEDEADYYCAAWDSSLSGYVFGGGTKLTVLG
A) 0.304
